test system: AR mRNA; assay: Dose-dependent antisense inhibition of human AR in HuVEC cells (electroporation, qRT-PCR RTS3559, IC50); format: cell-based; conditions: Table 33; 187.5 nM, HuVEC, electroporation, approximately 16 hours
Oligonucleotides are written 5' to 3', each unit as a sugar letter and its base; * is a phosphorothioate linkage, no mark a phosphodiester; rarer units and linkages stand in square brackets, end groups in braces. Plain capitals give the bases only. k = constrained ethyl (cEt); [5mC] = 5-methylcytosine; d = 2'-deoxy (DNA)
Measured percent inhibition of AR, 187.5 nM accompanies every entry in the list below.
Don't forget the unit after the number, please.

Reference set, count: 5
583833 (kT*kG*kT*dT*d[5mC]*d[5mC]*d[5mC]*d[5mC]*dT*dG*dG*dA*d[5mC]*kT*k[5mC]*kA; antisense) [compound 583833]	43%
583920 (kT*kA*kG*dT*dA*dG*dT*d[5mC]*dG*d[5mC]*dG*dA*d[5mC]*kT*k[5mC]*kT; antisense) [compound 583920]	16%
583843 (kG*kT*kA*d[5mC]*dA*dT*dG*d[5mC]*dA*dA*dT*d[5mC]*d[5mC]*k[5mC]*k[5mC]*k[5mC]; antisense) [compound 583843]	40%
549372 (kA*kA*kG*dT*dT*dG*dT*dA*dG*dT*dA*dG*dT*k[5mC]*kG*k[5mC]) [compound 549372]	33%
583847 (kA*k[5mC]*kA*dG*d[5mC]*dG*dG*dG*dT*dG*dG*dA*dA*k[5mC]*kT*k[5mC]; antisense) [compound 583847]	30%

Query: Recall and state the measured percent inhibition of AR, 187.5 nM for 583893 (kA*kG*k[5mC]*dA*dG*d[5mC]*d[5mC]*dT*dA*dG*dG*d[5mC]*dT*k[5mC]*kT*k[5mC]; antisense) [compound 583893] .
Reply: 35%

Query: Recall and state the measured percent inhibition of AR, 187.5 nM for 583868 (kA*k[5mC]*kT*d[5mC]*dA*dG*d[5mC]*dA*dG*dT*dA*dT*d[5mC]*kT*kT*k[5mC]; antisense) [compound 583868] .
Reply: 31%

Query: Recall and state the measured percent inhibition of AR, 187.5 nM for 583866 (kT*k[5mC]*kT*dT*d[5mC]*dA*dG*dT*dG*d[5mC]*dT*d[5mC]*dT*kT*kG*k[5mC]; antisense) [compound 583866] .
Reply: 48%

Query: Recall and state the measured percent inhibition of AR, 187.5 nM for 583892 (k[5mC]*kA*kG*d[5mC]*d[5mC]*dT*dA*dG*dG*d[5mC]*dT*d[5mC]*dT*k[5mC]*kG*k[5mC]; antisense) [compound 583892] .
Reply: 38%

Query: Recall and state the measured percent inhibition of AR, 187.5 nM for 583862 (kG*k[5mC]*kT*d[5mC]*dT*dT*dG*d[5mC]*d[5mC]*dT*dG*d[5mC]*dG*k[5mC]*kT*kG; antisense) [compound 583862] .
Reply: 37%
